Reported solubility at 4 h values for the following compounds.
- assay: Solubility of the compound at pH 5 after 4 hrs by UV-Vis spectrophotometry
- Type: physicochemical
- experimentalConditions: buffer
Give a bare numeral; the unit µg/mL is implied.

>  <querySmiles>
CCOc1cc(C(=CC#N)c2ccc(OC)c(NC(=O)[C@H](C)N)c2)ccc1OC.Cl

>  <number>
1040

$$$$

# input Requested read-out: solubility at 4 h. Entry: "CCOc1cc(C(=CC#N)c2ccc(OC)c(NC(=O)CN)c2)ccc1OC.Cl"
# output 356

---

Here the recorded solubility at 4 h is given for each entry.
- assay: Solubility of the compound at pH 7.4 after 4 hrs by UV-Vis spectrophotometry
- Format: physicochemical
- experimentalConditions: buffer
Write it as a number; the unit µg/mL goes unstated.

>  <querySmiles>
CCOc1cc(C(=CC#N)c2ccc(OC)c(NC(=O)[C@H](C)N)c2)ccc1OC.Cl

>  <readoutKind>
solubility at 4 h

>  <number>
405

$$$$

Next, consider the following molecule.
# input Look at this molecule and give its reported solubility at 4 h. "CCOc1cc(C(=CC#N)c2ccc(OC)c(NC(=O)CN)c2)ccc1OC.Cl"
# output 205

---

- assay: Inhibition of tubulin polymerization at 10 uM after 60 mins by spectrophotometry
Quick reference for inhibition among some molecules
Give a bare numeral; the unit % is implied.

# input What measured inhibition goes with "CCOc1cc(C(=CC#N)c2ccc(OC)c(NC(=O)CN)c2)ccc1OC.Cl" ?
# output 70

# input Same question, "COc1cc(OC)cc(C(=CC#N)c2ccc(OC)c(NC(C)=O)c2)c1" this time
# output 74

---

- assay: Inhibition of tubulin polymerization at 5 uM after 60 mins by spectrophotometry
readoutKind: inhibition (%)
Please reply with the bare figure in % and do not write the unit itself.

>  <querySmiles>
COc1cc(OC)cc(C(=CC#N)c2ccc(OC)c(O)c2)c1

>  <readoutUnits>
%

>  <inhibition>
77

$$$$
>  <querySmiles>
CCOc1cc(C(=CC#N)c2cc(OC)cc(OC)c2)ccc1OC

>  <readoutUnits>
%

>  <inhibition>
48

$$$$

# input inhibition lookup needed for "COc1cc(OC)cc(C(=CC#N)c2ccc(OC)c(NC(C)=O)c2)c1" , thanks.
# output 46

---

- assay: Stability in human plasma assessed as half life by LC-MS/MS analysis
- Type: ADME, cell-free
readoutKind: half-life
Value and unit, in that order.

>  <querySmiles>
CCOc1cc(C(=CC#N)c2ccc(OC)c(NC(=O)[C@H](C)N)c2)ccc1OC.Cl

>  <result>
1620 min

$$$$

# input Would you mind telling me what half-life value was observed for "CCOc1cc(C(=CC#N)c2ccc(OC)c(NC(=O)CN)c2)ccc1OC.Cl" ?
# output 3360 min

---

- Test system: PBMC
- assay: Inhibition of LPS-induced TNFalpha production in human PBMC preincubated 1 hr prior to LPS stimulation measured after 18 to 20 hrs by ELISA
- Assay type: functional, cell-based
readoutKind: IC50 (nM)
Reply with just the number (in nM).

Worked cases, IC50 given:
>  <querySmiles>
COC(=O)C=C(c1cc(OC)cc(OC)c1)c1ccc(OC)c(OC)c1

>  <systemTested>
PBMC

>  <IC50 (nM)>
5400

$$$$
>  <querySmiles>
COc1cccc(C(=CC#N)c2ccc(OC)c(OC)c2)c1

>  <systemTested>
PBMC

>  <IC50 (nM)>
660

$$$$

# input Sample "COc1cc(OC)cc(C(=CC(C)=O)c2ccc(OC)c(OC)c2)c1" — what was its IC50?
# output 750
